These entries and their values trace back to patent US10077237B2.

Assay Target: recombinant human AMPK complex, containing α2β1γ2 (Homo sapiens, UniProt P54646+Q9Y478)
Construct: hsAMPKα2-552-His, hsAMPKβ1-2-270 and hsAMPKγ-2-569 respectively; hsAMPKβ1-2-270; hsAMPKγ-2-569; His (C); made in house; host or cells: Spodoptera frugiperda Sf21 (baculovirus)
Sequence (P54646 2-552): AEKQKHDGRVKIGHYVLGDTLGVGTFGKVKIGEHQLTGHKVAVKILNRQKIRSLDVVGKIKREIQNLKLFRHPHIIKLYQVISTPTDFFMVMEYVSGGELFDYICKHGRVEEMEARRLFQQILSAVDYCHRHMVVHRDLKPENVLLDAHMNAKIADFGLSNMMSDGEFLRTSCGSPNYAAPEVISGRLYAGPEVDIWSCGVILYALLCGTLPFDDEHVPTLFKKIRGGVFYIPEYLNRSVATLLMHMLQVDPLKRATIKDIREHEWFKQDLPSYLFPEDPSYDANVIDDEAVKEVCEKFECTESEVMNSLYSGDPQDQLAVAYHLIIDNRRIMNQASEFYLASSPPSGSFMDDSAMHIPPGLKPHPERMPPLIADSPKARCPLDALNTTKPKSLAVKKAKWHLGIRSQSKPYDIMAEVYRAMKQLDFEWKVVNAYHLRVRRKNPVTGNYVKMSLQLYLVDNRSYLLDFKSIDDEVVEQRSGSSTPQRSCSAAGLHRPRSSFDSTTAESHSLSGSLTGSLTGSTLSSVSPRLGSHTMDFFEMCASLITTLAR
Sequence (Q9Y478 2-270): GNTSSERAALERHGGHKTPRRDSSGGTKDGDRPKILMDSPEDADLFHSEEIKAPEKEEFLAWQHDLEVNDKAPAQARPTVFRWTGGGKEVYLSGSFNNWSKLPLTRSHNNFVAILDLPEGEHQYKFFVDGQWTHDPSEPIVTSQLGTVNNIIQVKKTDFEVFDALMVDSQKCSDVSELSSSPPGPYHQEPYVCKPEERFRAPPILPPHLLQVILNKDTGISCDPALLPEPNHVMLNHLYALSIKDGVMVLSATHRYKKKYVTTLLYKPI
Sequence (Q9UGJ0 2-569 partner limits assumed): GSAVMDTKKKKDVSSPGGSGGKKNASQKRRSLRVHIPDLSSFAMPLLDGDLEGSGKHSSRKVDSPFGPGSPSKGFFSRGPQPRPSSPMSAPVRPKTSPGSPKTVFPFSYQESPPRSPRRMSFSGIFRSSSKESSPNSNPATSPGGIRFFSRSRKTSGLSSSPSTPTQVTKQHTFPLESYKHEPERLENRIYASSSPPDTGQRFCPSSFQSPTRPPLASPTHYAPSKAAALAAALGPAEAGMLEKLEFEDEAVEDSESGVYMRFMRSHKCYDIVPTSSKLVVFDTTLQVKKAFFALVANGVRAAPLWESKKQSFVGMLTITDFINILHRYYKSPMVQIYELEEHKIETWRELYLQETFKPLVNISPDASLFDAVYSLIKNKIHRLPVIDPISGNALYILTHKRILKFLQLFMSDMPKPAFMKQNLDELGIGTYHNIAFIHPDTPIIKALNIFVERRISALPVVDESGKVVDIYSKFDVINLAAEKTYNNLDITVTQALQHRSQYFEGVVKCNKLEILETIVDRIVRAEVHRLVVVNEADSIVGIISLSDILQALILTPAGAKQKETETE
Protocol Details: AMPK in vitro activation assay (HTRF)
Format: biochemical
Stated Conditions: potentiation of AMPK activity as percent over the basal signal (without compound)
Counter-ions that a name gives are not always drawn.
Observed Property: Emax (%)

{"Compound": "COc1cc(C(O)=C2C(=O)Nc3cc(Cl)c(-c4ccc5c(ccn5C)c4)cc32)on1", "Unit Info": "%", "Emax": 256}
{"Compound": "O=C1Nc2cc(Cl)c(-c3ccc(C4CC(O)C4)cc3)cc2C1=C(O)c1ccc(F)cc1F (centres unmarked)", "Unit Info": "%", "Emax": 131}
{"Compound": "O=C1Nc2cc(Cl)c(-c3ccc(C4(CO)CC4)cc3)cc2C1=C(O)c1ccc(F)cc1F", "Unit Info": "%", "Emax": 229}
{"Compound": "COc1cccc(-c2ccc(-c3cc4c(cc3Cl)NC(=O)C4=C(O)c3cnc(C)s3)cc2)c1O", "Unit Info": "%", "Emax": 129}
{"Compound": "Cc1cc(C(O)=C2C(=O)Nc3cc(Cl)c(-c4ccc(OCC5COC5)cc4)cc32)on1", "Unit Info": "%", "Emax": 364}
{"Compound": "COc1cc(C(O)=C2C(=O)Nc3cc(Cl)c(-c4ccc(C5CCN(CC(F)(F)F)C5)cc4)cc32)on1 (centres unmarked) [Compound 167, hydrochloride]", "Unit Info": "%", "Emax": 156}

[P] Cc1cc(C(O)=C2C(=O)Nc3cc(F)c(-c4ccc(C5(CO)CC5)cc4)cc32)on1
[Q] COc1cc(C(O)=C2C(=O)Nc3cc(Cl)c(-c4ccc(N(C)C)c(F)c4)cc32)on1
(Q) Pick one, P or Q : lowest reported Emax. Answer = label.
(A) P
(P: 159%, Q: 267%)
